Tested on: RPMI-8226
Experiment: NCI tumour cell line growth inhibition, 48 h
Active and inactive are the calls of the source. Cut-off read from the data, not from the text of the source: active = GI50 up to about 1.1 µM and inactive = higher.
Outcome codes: 1 for active, 0 for inactive

| Compound | Label class |
| --- | --- |
| C/C=C\C1OC1(C)c1cc(=O)c2c(C)cc3c(c2o1)C(=O)c1c(O)c(C2CC(C)(N(C)C)C(OC(C)=O)C(C)O2)cc(C2CC(N(C)C)C(O)C(C)O2)c1C3=O (stereo unspecified) | 1 |
| Oc1cccc2cccnc12 | 1 |
| C[N+](C)(C)CCOP(=O)([O-])OCCNC(=O)c1ccc2ccccc2c1 | 0 |
| CN(CC(=O)O)S(=O)(=O)c1ccc2ccccc2c1 | 0 |
| COC(=O)/C(C#N)=C1\NC(=O)c2ccccc21 | 0 |
| O=C(NCCCNCCCCNCCCNC(=O)c1cc(-c2ccccc2)nc2ccccc12)c1cc(-c2ccccc2)nc2ccccc12 | 0 |
| CC12CC(=O)C3C(C(=O)C1)C32C (stereo unspecified) | 0 |
| c1cnc2c(c1)-n1cccc1C1(CCOCC1)NN2 | 0 |
| CC(C)=CC(=O)CC(=O)C(=O)Nc1ccc(Cl)c(Cl)c1 | 0 |
| O=C(Nc1ncc([N+](=O)[O-])s1)c1ccccc1O [TIZOXANIDE] | 0 |
| O=C1C=CC(=O)C(CNc2ccc(C(=O)OC34CC5CC(CC(C5)C3)C4)cc2)=C1 | 0 |
| Cc1ccc(OCC2=NN3C(=O)/C(=C\c4ccc([N+](=O)[O-])o4)SC3N2)cc1 (stereo unspecified) | 0 |
| Cc1ccccc1NC(=O)C(=O)CC(=O)C1CCOC1=O (stereo unspecified) | 0 |
| COC(=O)C1(Cc2ccccc2)Cc2ccccc2C1 | 0 |
| COC(=O)[C@@]12OC[C@]34[C@H]([C@@H](O)[C@@H]1O)[C@@]1(C)CC(=O)C(O)=C(C)[C@@H]1C[C@H]3OC(=O)[C@H](OC(=O)/C=C(\C)C(C)C)[C@@H]24 [BRUCEANTIN] | 1 |
| NC1=NN(c2ccccc2)C2(c3ccncc3C(=O)O)C1C(N)=NN2c1ccccc1 (stereo unspecified) | 0 |
| COc1ccc(/C=N/NC(=O)O)cc1 | 0 |
| Clc1ccc(OCc2nnc(CCCCCCCCc3nnc(COc4ccc(Cl)cc4)n3Nc3ccccc3)n2Nc2ccccc2)cc1 | 1 |
| O=C(CC1C(=O)Nc2ccccc2S1(=O)=O)Nc1cc(Cl)ccc1Cl (stereo unspecified) | 0 |
| CC(C)(C)c1ccc(-c2nnc(-c3cc(C#N)cc(-c4nnc(-c5ccc(C(C)(C)C)cc5)o4)c3)o2)cc1 | 0 |
| COC(=O)C1=NN2c3ccccc3C(=O)OCCC2(C)C1 (stereo unspecified) | 0 |
| COc1ccc(/C=C(\NC(=O)c2ccccc2)c2nc3ccccc3[nH]2)cc1OC | 0 |
| CN(C)CCCNc1ccc2c(=O)n(CCN(C)C)c(=O)n3c4ccccc4c(=O)c1c23 | 1 |
| CC(O)c1cc2c(s1)C(=O)c1c(C(C)O)csc1C2=O (stereo unspecified) | 1 |
| COC(=O)C12CC(C3CC31)C1CC12 (stereo unspecified) | 0 |
| CN(C)CCNC(=O)c1cccc2c(=O)c3ccccc3oc12 | 0 |
| C=C1C(=O)C2=CC1CCC(=O)C1(C)CCC(OC(C)=O)C(C)(C)C1CC2O (stereo unspecified) | 0 |
| COc1ccc2ccc3c(c2c1)CN1CCc2cc(OC)c(OC)cc2C1C3 (stereo unspecified) | 0 |
| Cn1cnc([N+](=O)[O-])c1Sc1n[nH]c(-c2ccc(Cl)cc2)n1 | 0 |
| CN1CC[C@]23c4c5ccc(O)c4O[C@H]2C(O)CC[C@@]3(O)[C@H]1C5 (stereo partly specified) | 0 |
| CN(C)c1nncc2[nH]cnc12 | 0 |
| Fc1ccc(NCn2nc(COc3ccccc3Cl)n(/N=C/c3ccc(-c4ccc(Cl)cc4Cl)o3)c2=S)cc1Cl | 0 |
| CC(=O)Nc1ccc(Sc2nnc(NC(C)=O)s2)cc1 | 0 |
| COC1/C=C\C=C(/C)C(=O)Nc2cc3nc4ccc(Br)cc4oc-3c(c2=O)CC(C)CC(OC)C(O)C(C)/C=C(\C)C1OC(N)=O (stereo unspecified) | 1 |
| CC(C)(C)c1cc(C(O)(C(F)(F)F)C(F)(F)F)c2c(c1)C(C(F)(F)F)(C(F)(F)F)OC(C)(C(C)(C)C)N2 (stereo unspecified) | 0 |
| Cc1nc(Cl)c2sc(=S)n(-c3ccc(F)cc3)c2n1 | 0 |
| CCOC(=O)COc1ccc(OC)c2c1C(=O)CCC2 | 0 |
| N#CC1(Nc2ccc(-c3ccc(NC4(C#N)CCCC4)cc3)cc2)CCCC1 | 0 |
| Cc1ccc(-c2nnc(SCC(=O)O)[nH]2)cc1 | 0 |
| COc1cc2[nH]c(=O)[nH]c2c2c(C)c[nH]c12 | 0 |
| O=C1C=CC2(CCCCCCC2=O)CC1 (stereo unspecified) | 0 |
